Consider the following binders; for each one, report its peptide exchange yield.
target_or_system: T1, HLA-A*02:01 (human)
T1 construct: monomers captured on streptavidin plates; also called MHC class I
measurement_notes: UV peptide exchange ELISA

Req: Entry `FLYIGDIVSL` needs its peptide exchange yield filled in; supply it.
Resp: ≥ 75%

Req: Entry `NLFQSVREV` needs its peptide exchange yield filled in; supply it.
Resp: 20 to 50%

Req: Entry `KLGHTDILVGV` needs its peptide exchange yield filled in; supply it.
Resp: 20 to 50%

Req: Entry `GLLRDEALAEV` needs its peptide exchange yield filled in; supply it.
Resp: 50 to 75%

Req: Entry `ALFTFSPLTV` needs its peptide exchange yield filled in; supply it.
Resp: 50 to 75%

Req: Entry `FLPDANSSV` needs its peptide exchange yield filled in; supply it.
Resp: 20 to 50%

Req: Entry `GLVGNPLPSV` needs its peptide exchange yield filled in; supply it.
Resp: ≥ 75%

Req: Entry `TLAELQPPVQL` needs its peptide exchange yield filled in; supply it.
Resp: 50 to 75%
